Every entry's value here was drawn from patent US5719278A.

target_or_system: oxytocin receptors (Rattus norvegicus, UniProt P70536)
Construct: The uteri are dissected out, cleaned of fat and connective tissues; from tissue; host or cells: uterus of DES-treated female Sprague-Dawley rats
Sequence (P70536 whole entry): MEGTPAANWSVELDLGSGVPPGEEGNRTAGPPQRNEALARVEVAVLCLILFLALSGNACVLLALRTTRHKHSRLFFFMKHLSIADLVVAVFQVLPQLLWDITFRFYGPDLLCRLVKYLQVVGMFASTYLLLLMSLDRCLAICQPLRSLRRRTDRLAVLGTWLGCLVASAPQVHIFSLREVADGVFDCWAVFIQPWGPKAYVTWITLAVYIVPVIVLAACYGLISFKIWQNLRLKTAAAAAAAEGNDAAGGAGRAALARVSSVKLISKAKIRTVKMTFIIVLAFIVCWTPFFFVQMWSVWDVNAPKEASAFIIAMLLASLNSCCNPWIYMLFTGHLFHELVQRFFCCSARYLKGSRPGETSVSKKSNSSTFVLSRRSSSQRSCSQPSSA
protocol_notes: Oxytocin Receptor Binding
Design: species or system Sprague-Dawley rat
assay_conditions: Dose 10 μM
observed_property: inhibition at 10 µM

Could you tell me which inhibition at 10 µM is on file for O=C(Nc1ccc(C(=O)N2CCc3cn[nH]c3-c3ncccc32)cc1)c1ccccc1-c1ccccc1 ?
57%

Consider next the compound Cc1ccccc1C(=O)Nc1ccc(C(=O)N2CCc3c[nH]nc3-c3sccc32)cc1 in the same way.
65%

Consider next the compound Cc1ccc(F)cc1C(=O)Nc1ccc(C(=O)N2CCc3cn[nH]c3-c3sccc32)cc1 in the same way.
91%

Consider next the compound Cn1cc2c(n1)-c1sccc1N(C(=O)c1ccc(NC(=O)C3CCCCC3)cc1)CC2 in the same way.
94%

Consider next the compound Cc1ccccc1C(=O)Nc1ccc(C(=O)N2CCc3cn(C)nc3-c3sccc32)cc1 in the same way.
57%

Consider next the compound Cc1ccc(F)cc1C(=O)Nc1ccc(C(=O)N2CCc3c[nH]nc3-c3ncccc32)cc1 in the same way.
63%

Consider next the compound Cn1cc2c(n1)-c1sccc1N(C(=O)c1ccc(NC(=O)c3ccc(Cl)cc3Cl)cc1)CC2 in the same way.
47%

Consider next the compound O=C(Nc1ccc(C(=O)N2CCc3cn[nH]c3-c3sccc32)cc1)c1ccc(F)cc1Cl in the same way.
93%
